Test: plasma pharmacokinetics, LC-MS/MS, noncompartmental analysis
Type: in vivo, human
Conditions: human, plasma, oral, 2.5 mg, phase Ib, schedule B 2.5 mg including NUT carcinoma, day 14; read-out: tmax,ss median
MEASURED ENDPOINT: Tmax (h)
# value in h; strip the unit string

Identify Tmax associated with the compound CNc1nc(-c2nc3ccc(N4CCN(C)CC4)cc3n2Cc2ccccc2)cn2c(C)nnc12 [BI 894999]
2

###

Test: plasma pharmacokinetics, LC-MS/MS, noncompartmental analysis
Format: in vivo, human
Details: human, plasma, oral, 6 mg, phase Ib, schedule C 6.0/3.0 mg NUT carcinoma only, day 1 after loading dose; read-out: AUC0–24 gMean (gCV, %)
MEASURED ENDPOINT: AUC(0-t) (µM·h)
# value in µM·h; strip the unit string

Identify AUC(0-t) associated with the molecule CNc1nc(-c2nc3ccc(N4CCN(C)CC4)cc3n2Cc2ccccc2)cn2c(C)nnc12
0.214
